# subject-of-test: 5-hydroxytryptamine receptor 6 (Homo sapiens, UniProt P50406)
# Sequence (P50406 whole entry): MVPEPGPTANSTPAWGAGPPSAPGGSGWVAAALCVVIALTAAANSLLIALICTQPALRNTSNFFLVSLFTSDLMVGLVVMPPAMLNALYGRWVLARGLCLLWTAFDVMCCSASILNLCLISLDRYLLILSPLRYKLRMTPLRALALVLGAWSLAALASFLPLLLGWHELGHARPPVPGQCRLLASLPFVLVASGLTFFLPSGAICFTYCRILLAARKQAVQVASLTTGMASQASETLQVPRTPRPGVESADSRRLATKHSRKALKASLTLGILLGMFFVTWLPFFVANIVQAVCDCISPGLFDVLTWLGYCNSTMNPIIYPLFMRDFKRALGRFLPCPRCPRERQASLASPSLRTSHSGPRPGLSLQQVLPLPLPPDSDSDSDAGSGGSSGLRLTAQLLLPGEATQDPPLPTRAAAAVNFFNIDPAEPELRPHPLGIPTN
# Format: cell membranes, HeLa, Membrane
# conditions-used: hela; also: in other assays of this panel Not Active means under 50% inhibition at 10 µM
recorded-metric: IC50

Please review the following examples before continuing.
{"compound": "COc1cc(NC(C)CCCN)c2ncccc2c1 (centres undefined)", "IC50": "Not Active"}
{"compound": "CC(=O)O[C@]1(C(C)=O)CC[C@H]2[C@@H]3C[C@H](C)C4=CC(=O)CC[C@]4(C)[C@H]3CC[C@@]21C [MEDROXYPROGESTERONE ACETATE]", "IC50": "Not Active"}
{"compound": "Cc1ccc(Cl)c(Nc2ccccc2C(=O)O)c1Cl", "IC50": "Not Active"}
{"compound": "CCC(C)(C)C(=O)O[C@H]1C[C@@H](C)C=C2C=C[C@H](C)[C@H](CC[C@@H]3C[C@@H](O)CC(=O)O3)[C@H]21", "IC50": "Not Active"}
{"compound": "COc1cc([C@@H]2c3cc4c(cc3[C@H](O)[C@H]3COC(=O)[C@H]23)OCO4)cc(OC)c1OC", "IC50": "Not Active"}
{"compound": "C=CCO", "IC50": "Not Active"}

Please give IC50 for each item listed below.
1. C1CCN2C[C@@H]3C[C@@H](CN4CCCC[C@@H]34)[C@H]2C1
2. C=CCc1ccc2c(c1)OCO2
3. C[N+](C)(C)CCOP(=O)([O-])OC[C@H](O)CO

result:
1: Not Active; 2: Not Active; 3: Not Active
